Procedure text: qHTS assay for identifying genotoxic compounds that show differential cytotoxicity against isogenic chicken DT40 cell lines with known DNA damage response pathways - Rad54/Ku70 mutant cell line (AID 743015); further: nearly all actives have a fitted effect of over 60% in size
Stated conditions: DT40 Rad54/Ku70 mutant viability, CellTiter-Glo, 40 h; series mostly up to 66.8 µM
Records with an inconclusive call do not appear. Active and inactive are the calls of the source. The call rests on the fitted dose curve; in most records, active means well fitted cell-killing curve with a large enough effect in the repeat runs; inconclusive means weak or mixed curves; inactive means no such curve, though single readings can be large or run the other way.
Just give me one of these, please: YES (active), NO (inactive)

Here are 2 molecules together with their reported answers.
CC(Cl)(Cl)[N+](=O)[O-]	NO
CC(C)COP(=O)(OCC(C)C)OCC(C)C	NO

Prompt: Assay outcome for CC(CC(C#N)(c1ccccc1)c1ccccc1)N(C)C (stereo unspecified) : what was it?
Response: YES

Prompt: Per the assay record, what outcome was assigned to CC(N)=S ?
Response: NO

Prompt: Per the records of this test, what outcome belongs to CS(=O)(=O)c1cc(C(F)(F)F)ccc1C(=O)c1cnoc1C1CC1 ?
Response: NO

Prompt: Could you check what this test reported for NC(=O)c1cc([N+](=O)[O-])cc([N+](=O)[O-])c1 ?
Response: NO

Prompt: Dear all, I need the recorded test outcome for CCOP(=S)(OCC)Oc1ncn(-c2ccccc2)n1 , thank you.
Response: YES

Prompt: For this molecule, state the assay outcome: CCC/C(=N\OCC)C1=C(O)CC(CC(C)SCC)CC1=O (stereo unspecified)
Response: YES

Prompt: Record lookup: outcome of this test for Cc1cc(C)c(C(=O)P(=O)(C(=O)c2c(C)cc(C)cc2C)c2ccccc2)c(C)c1 ?
Response: NO

###

Procedure text: qHTS assay to identify small molecule agonists of the constitutive androstane receptor (CAR) signaling pathway - cell viability counter screen (AID 1224836); further: on the % scale 0 is the no-effect control and ±100 the full control effect; nearly all actives have a fitted effect of over 45% in size
Stated conditions: HepG2-CYP2B6-hCAR viability, CellTiter-Fluor, 23 h, PK11195 added to every well; series mostly up to 92.4 µM
Inconclusive results are not listed. Activity calls are given as the source filed them. The call rests on the fitted dose curve; in most records, active means well fitted cell-killing curve with a large enough effect in the repeat runs; inconclusive means weak or mixed curves, or effect the other way; inactive means flat fitted curve, though single readings scatter.
Readout type: viability change, negative = cytotoxic

CCOP(=S)(OCC)SCSc1ccc(Cl)cc1	inactive
Cc1nc(N)nc(N)n1	inactive
O=c1oc2ccccc2c(O)c1C1CCCc2ccccc21 (stereo not given)	inactive
CC1(C)C(=O)NC(=O)NC1=O	inactive
CCOP(=O)(N=C1SCCS1)OCC	inactive
O=[N+]([O-])c1cccc2cccnc12	inactive

Prompt: Form field: reported viability change, negative = cytotoxic of COC(=O)C(c1ccccc1)C1CCCCN1 (stereo not given)
Response: inactive

Prompt: Item COc1cc(OC)nc(NC(=O)NS(=O)(=O)c2ncccc2C(=O)N(C)C)n1 has what recorded viability change, negative = cytotoxic?
Response: inactive

Prompt: State the recorded viability change, negative = cytotoxic for this entry: C#CCN1C(=O)COc2cc(F)c(N3C(=O)C4=C(CCCC4)C3=O)cc21
Response: inactive

###

Assayed target: Estrogen receptor (Homo sapiens)
Procedure text: qHTS assay to identify small molecule agonists of the estrogen receptor alpha (ER-alpha) signaling pathway using the BG1 cell line (AID 743079); further: on the % scale 0 is the no-effect control and ±100 the full control effect; nearly all actives have a fitted effect of over 20% in size
Stated conditions: BG1Luc4E2 cells, ERE-luciferase agonist, 22 h; at 70.3 µM (top of the series)
Inconclusive results are not listed.
Readout type: activation (%)
Numeric only. Scale: %

Solved cases (10 shown):
CC1(C)C(=O)NC(=O)NC1=O	-7.44
CCC1(c2ccccc2)C(=O)NC(=O)NC1=O	-1.3
CCN(Cc1ccc(Cl)nc1)/C(=C/[N+](=O)[O-])NC	1.15
OCCBr	6.61
N#CCCC#N	-3.68
C#CCN1C(=O)COc2cc(F)c(N3C(=O)C4=C(CCCC4)C3=O)cc21	-23.7
O=C1CN=C(c2ccccc2)c2cc([N+](=O)[O-])ccc2N1	-1.51
COc1cc2c(cc1OC)[C@@]13CCN4CC5=CCO[C@H]6CC(=O)N2[C@H]1[C@H]6[C@H]5C[C@H]43	-4.94
CC(=O)[C@H]1CC[C@H]2[C@@H]3CC[C@H]4C[C@H](O)CC[C@]4(C)[C@H]3C(=O)C[C@]12C	8.45
O=c1oc2ccccc2c(O)c1C1CCCc2ccccc21 (stereo not drawn)	-13.4

Prompt: Quick one: activation for OCCSCSCCO ?
Response: -2.71

Prompt: Please report the recorded activation for COP(=S)(OC)Oc1ccc(S(N)(=O)=O)cc1 .
Response: 10.7

Prompt: Which activation is listed for CCCCOC(=O)[C@@H](C)Oc1ccc(Oc2ccc(C#N)cc2F)cc1 ?
Response: -4.38

###

Procedure text: A CellTox Green Cytotoxicity Assay to monitor cytotoxicity in HEK293 cells - 8 hour (AID 1224884); further: on the % scale 0 is the no-effect control and ±100 the full control effect; nearly all actives have a fitted effect of over 35% in size
Stated conditions: CellTox Green fluorescence; series mostly up to 76.8 µM
Inconclusive results are not listed. Calls of active or inactive are those of the source. Calls follow the shape of the dose curve; as a rule, active = well fitted activation curve with a large enough effect in the repeat runs; inconclusive = weak or mixed curves; inactive = flat fitted curve, though single readings scatter.
Readout type: outcome

N#CCNCC#N	inactive
N#CC(CCc1ccc(Cl)cc1)(Cn1cncn1)c1ccccc1 (configuration not stated)	inactive
Cc1cnc[nH]1	inactive
ClC(Br)Br	inactive
CCCCC(=O)Cl	inactive

Prompt: Give the measured outcome of CN(N=O)C(N)=O .
Response: inactive

Prompt: Value lookup for outcome; key = CCC1(c2ccccc2)C(=O)N=C(O)NC1=O (configuration not stated)
Response: inactive

Prompt: Given the entry Cc1cc(C)c(C(=O)P(=O)(C(=O)c2c(C)cc(C)cc2C)c2ccccc2)c(C)c1 , report its measured outcome.
Response: inactive

Prompt: Which outcome value belongs to C[C@H]1CCC[C@H](O)CCCCCc2cc(O)cc(O)c2C(=O)O1 ?
Response: inactive

Prompt: Would you mind telling me what outcome value was observed for O=[N+]([O-])c1cccc(O)c1 ?
Response: inactive

Prompt: Record request: outcome value, item Nc1n[nH]c(N)n1
Response: inactive

Prompt: Report outcome for CC(C)[N+](=O)[O-] please.
Response: inactive

Prompt: Quick one: outcome for CCOP(=S)(Oc1cnc(C(C)(C)C)nc1)OC(C)C (configuration not stated) ?
Response: inactive

Prompt: // query outcome value for entry CC(C(=O)c1ccccc1)N(C)C (configuration not stated)
Response: inactive

Prompt: Please look up its outcome: COc1cc(OC)nc(NC(=O)NS(=O)(=O)c2ncccc2C(=O)N(C)C)n1
Response: inactive

Prompt: Could you share which outcome value was measured for COc1ccc2c(c1OC)CN1CCc3cc4c(cc3C1C2)OCO4 (configuration not stated) ?
Response: inactive

Prompt: Need outcome of CCOP(=S)(OCC)Oc1cc(-c2ccccc2)on1 , thanks.
Response: inactive

Prompt: Which outcome is reported for this compound? CC(=O)Nc1cc([As](=O)(O)O)ccc1O
Response: inactive

Prompt: Quick check: outcome of Cc1ncc(CNC(=O)N(CCCl)N=O)c(N)n1 ?
Response: inactive

Prompt: Would you kindly share the measured outcome for CC(CCc1ccccc1)NC(C)C(O)c1ccc(O)cc1 (configuration not stated) ?
Response: inactive

Prompt: Consider the compound NC(=O)c1cc([N+](=O)[O-])cc([N+](=O)[O-])c1 and give its measured outcome.
Response: inactive

Prompt: I have this compound here, O=C(CCCN1CCC(n2c(=O)[nH]c3ccccc32)CC1)c1ccc(F)cc1 , and I need its recorded outcome.
Response: inactive

Prompt: Look up outcome: COP(N)(=S)Oc1ccccc1C(=O)OC(C)C (configuration not stated)
Response: inactive

###

Procedure text: qHTS RealTime-Glo MT Cell Viability Assay in HepG2 cells - 24 hour (AID 1224867); further: on the % scale 0 is the no-effect control and ±100 the full control effect; nearly all actives have a fitted effect of over 50% in size
Stated conditions: RealTime-Glo luminescence; series mostly up to 76.8 µM
Inconclusive results are not listed. Activity calls are given as the source filed them. The call rests on the fitted dose curve; in most records, active means well fitted cell-killing curve with a large enough effect in the repeat runs; inconclusive means weak or mixed curves; inactive means flat fitted curve, though single readings scatter.
Readout type: outcome

COP(=S)(OC)Oc1c(Cl)cc(C)cc1Cl	inactive
C#C[C@]1(O)C=C[C@H]2[C@@H]3CCC4=CC(=O)CC[C@@H]4[C@H]3CC[C@@]21CC	inactive
CCCSC(=O)N(CCC)CCC	inactive
Cc1ncsc1CCCl	inactive
CCCSP(=O)(OCC)Oc1ccc(Br)cc1Cl (configuration not stated)	inactive
COc1ccc2c(c1OC)CN1CCc3cc4c(cc3C1C2)OCO4 (configuration not stated)	inactive

Prompt: Can you share its outcome? I mean this molecule: C[C@@H]1CN(C2CCC(C#N)(c3ccc(F)cc3)CC2)CC[C@]1(C(=O)O)c1ccccc1 (some centres not stated)
Response: inactive

Prompt: Would you mind telling me what outcome value was observed for O=[N+]([O-])c1cccc2c([N+](=O)[O-])cccc12 ?
Response: inactive

Prompt: Which outcome value belongs to Cc1ncc2n1-c1ccc(Cl)cc1C(c1ccccc1F)=NC2 ?
Response: inactive

Prompt: Item under review: COC(=O)C(c1ccccc1)C1CCCCN1 (configuration not stated) . Reported outcome?
Response: inactive

Prompt: What outcome value was documented for this molecule, Clc1cccc(N2CCNCC2)c1 ?
Response: inactive

Prompt: Given the molecule O=[N+]([O-])c1cccc2cccnc12 , what is its reported outcome?
Response: inactive

Prompt: # lookup: outcome of CC(COc1ccc(Oc2ccccc2)cc1)Oc1ccccn1 (configuration not stated)
Response: inactive

Prompt: Record request: outcome value, item C[C@]12CC[C@H]3[C@@H](CC=C4C[C@@H](O)CC[C@@]43C)[C@@H]1CC[C@@H]2O
Response: inactive

Prompt: Data request, read-out outcome, for Cc1nc(N)nc(N)n1
Response: inactive

Prompt: Item under review: CC(C)CP(=S)(S)CC(C)C . Reported outcome?
Response: inactive

Prompt: outcome for C=C(C)[C@@H]1CC=C(C=O)CC1 ?
Response: inactive
